Tested on: SW-620 colon
Assay: NCI tumour cell line growth inhibition, 48 h; in the data active = GI50 below about 0.43 µM; inactive = the rest
Outcome codes: active, inactive

compound: O=C1/C(=C\c2ccc(F)cc2)CN(C(=O)c2ccc([N+](=O)[O-])cc2)C/C1=C\c1ccc(F)cc1
classAssignment: inactive

compound: Cc1ncc(C(=O)Nc2ccc(CN3CCN(C)CC3)c(C(F)(F)F)c2)cc1C#Cc1cnc(N)c2cnccc12
classAssignment: active

compound: NC(=NCCCC1(c2ccccc2)CCCC1)Nc1ccc(Cl)cc1
classAssignment: inactive

compound: COc1ccccc1-c1cc(/C=C2\C(=O)Nc3ncc(Br)cc32)cc(Br)c1O
classAssignment: inactive

compound: COc1ccc(-c2nsc3c2NC(=O)CC3c2ccc(F)cc2)cc1 (stereo not given)
classAssignment: inactive

compound: COc1ccccc1/C=C/C(=O)c1c(O)cc2occc2c1OC
classAssignment: inactive

compound: CCOC(=O)C(Cc1c[nH]c2ccc([N+](=O)[O-])cc12)(NC(C)=O)C(=O)OCC
classAssignment: inactive

compound: COc1cc(-c2nc(NC(C)=O)sc2-c2ccnc(NCCNS(=O)(=O)c3ccccc3)n2)ccc1Cl
classAssignment: inactive

compound: C[C@@H](N)C1CCC(C(=O)Nc2ccncc2)CC1 (stereo not given in full)
classAssignment: inactive

compound: C/C1=C/C(=O)O[C@@H]2C[C@@H](CC[C@H](C)/C=C\C=C\CC1)O[C@@](O)([C@@H]1CSC(=O)N1CO)C2
classAssignment: inactive

====

Test system: SK-MEL-28 melanoma
Assay: NCI tumour cell line growth inhibition, 48 h

compound: O=C1/C=C/[C@@H](O)[C@@H]2C[C@@H](O)C[C@H]2/C=C/CCC[C@H](CCc2ccc(C(F)(F)F)cc2)O1
GI50: 40.5 nM
//
compound: COc1cc2c(F)nccc2cc1C(=O)N[C@@H](c1ccc(F)c(Cl)c1)[C@@H]1C[C@@H](O)CN1
GI50: 4480 nM
//
compound: NCCCCCCCCn1c2c(c3ccccc3c1=O)C(=O)c1ccccc1-2
GI50: 2870 nM
//
compound: CCN(CC)c1ccc(C2CC(c3cc(OC)c(OC)c(OC)c3)=NN2)cc1 (configuration not stated)
GI50: 23700 nM
//
compound: COc1ccccc1-c1cc(/C=C2\C(=O)Nc3ncc(Br)cc32)cc(Br)c1O
GI50: 14800 nM
//
compound: COC(=O)[C@H]1[C@@H](O)[C@@]2(O)c3c(OC)cc(O[C@@H]4O[C@@H]([C@H](O)CO)CO[C@H]4OC)cc3O[C@@]2(c2ccc(OC)cc2)[C@@H]1c1ccccc1
GI50: 3.21 nM
//
compound: CCN(CC)CC.CCOc1ccc(NC(=O)N=C=[N-])cc1.[CH-]1CCCCC1.[CH-]1CCCCC1.[CH-]1CCCCC1.[Cl-].[Sn+4]
GI50: 34.9 nM

====

Test system: NCI-H522 lung
Experiment: NCI tumour cell line growth inhibition, 48 h
measurementType: TGI

molecule: CCCCCCCCCCCCNC(=O)[C@H]1CSC(c2cc3ccccc3s2)N1 (some centres not stated)
measured: 11.1 µM
--
molecule: COC(=O)[C@@]1(Cc2ccccc2)[C@H]2c3cc(C(=O)N4CCCC4)n(Cc4ccc(OC)c(OC)c4)c3C[C@H]2CN1C(=O)c1ccccc1
measured: 19.6 µM
--
molecule: CN(C)CCCNC(=O)c1ccc2oc3cc4ccccc4c(=O)n3c2c1
measured: > 50 µM
--
molecule: COc1cc(C2SCC(=O)N2Cc2ccccc2)cc(OC)c1OC (configuration not stated)
measured: > 100 µM
--
molecule: O=c1oc2ccccc2n1P(=O)(n1c(=O)oc2ccccc21)n1c(=O)oc2ccccc21
measured: > 100 µM
--
molecule: NC1OC(COC(=O)c2ccccc2)C(O)C(OC(=O)c2ccccc2)C1OC(=O)c1ccccc1 (configuration not stated)
measured: 58.5 µM
--
molecule: NC(=O)NC(=O)CCC(NS(=O)(=O)c1ccccc1)C(=O)NC(N)=O (configuration not stated)
measured: > 100 µM
--
molecule: CC1=[N+]([O-])C(C)(C)N(N=O)C1(C)C
measured: > 10 µM
--
molecule: CC(/C=C/C(=O)c1sc(-n2nc(-c3ccccc3)cc2-c2ccccc2)nc1C)=C\c1ccccc1
measured: > 100 µM
--
molecule: [O-]c1c[n+](CCCC[n+]2cc([O-])on2)no1
measured: > 100 µM
--
molecule: O=c1c(-c2c(-c3ccccc3)oc3ccc(Cl)cc3c2=O)c(-c2ccccc2)oc2ccc(Cl)cc12
measured: > 100 µM
--
molecule: C#Cc1c(C)c(/C=C/C(C)=C/C=C/C(C)=C/C(=O)OC)n(C)c1C
measured: > 100 µM
--
molecule: CCn1ncc2c1nc(-c1ccccc1)c[n+]2[O-]
measured: > 100 µM
--
molecule: COc1cc2c(c(OC)c1O)-c1ccc(OC)c(=O)cc1[C@@H](NC(=O)C(F)(F)F)CC2
measured: 0.0665 µM
--
molecule: O=Cc1ccc(-c2ccc(-c3nc4ccccc4[nH]3)cc2)s1
measured: > 100 µM
--
molecule: O=C(Nc1cc2c(=O)[nH]c3ccccc3c2oc1=O)c1cnccn1
measured: > 100 µM
--
molecule: CC1(C)Oc2ccc3c(=O)c(-c4ccccc4)c(-c4ccccc4)oc3c2C1C(=O)O (configuration not stated)
measured: > 100 µM
--
molecule: O=c1[nH]c(=O)n(C2OC(CO)C(O)C2O)c2ncc(-c3ccc(-c4ccccc4)cc3)nc12 (configuration not stated)
measured: > 20 µM
--
molecule: O=C1OC2C(O)COC2(O)C1(O)C(C[N+](=O)[O-])c1ccc(Cl)cc1 (configuration not stated)
measured: 23.7 µM
--
molecule: Nc1ccc(Oc2ccc(C3(c4ccc(Oc5ccc(N)cc5)cc4)C4CC5C6CC7CC5C3C(C7)C6C4)cc2)cc1
measured: > 100 µM
--
molecule: Cc1c(-c2ccccc2)c(=O)oc2ccc(Cl)cc12
measured: > 100 µM
--
molecule: C=C(C)[C@@H]1CC[C@]2(C(N)=O)CC[C@]3(C)[C@H](CC[C@@H]4[C@@]5(C)CC[C@H](O)C(C)(C)[C@@H]5CC[C@]43C)[C@@H]12
measured: 16.3 µM
